pEC50 values by entry
biological target: GABAB receptor (Rattus norvegicus, UniProt O88871+Q9Z0U4); assay: In vitro [35S]GTPγS binding assay in rat cortical membranes; conditions: PAM EC50, [35S]GTPγS binding, read-out: In vitro PAM potency
Sequence (O88871 41-940): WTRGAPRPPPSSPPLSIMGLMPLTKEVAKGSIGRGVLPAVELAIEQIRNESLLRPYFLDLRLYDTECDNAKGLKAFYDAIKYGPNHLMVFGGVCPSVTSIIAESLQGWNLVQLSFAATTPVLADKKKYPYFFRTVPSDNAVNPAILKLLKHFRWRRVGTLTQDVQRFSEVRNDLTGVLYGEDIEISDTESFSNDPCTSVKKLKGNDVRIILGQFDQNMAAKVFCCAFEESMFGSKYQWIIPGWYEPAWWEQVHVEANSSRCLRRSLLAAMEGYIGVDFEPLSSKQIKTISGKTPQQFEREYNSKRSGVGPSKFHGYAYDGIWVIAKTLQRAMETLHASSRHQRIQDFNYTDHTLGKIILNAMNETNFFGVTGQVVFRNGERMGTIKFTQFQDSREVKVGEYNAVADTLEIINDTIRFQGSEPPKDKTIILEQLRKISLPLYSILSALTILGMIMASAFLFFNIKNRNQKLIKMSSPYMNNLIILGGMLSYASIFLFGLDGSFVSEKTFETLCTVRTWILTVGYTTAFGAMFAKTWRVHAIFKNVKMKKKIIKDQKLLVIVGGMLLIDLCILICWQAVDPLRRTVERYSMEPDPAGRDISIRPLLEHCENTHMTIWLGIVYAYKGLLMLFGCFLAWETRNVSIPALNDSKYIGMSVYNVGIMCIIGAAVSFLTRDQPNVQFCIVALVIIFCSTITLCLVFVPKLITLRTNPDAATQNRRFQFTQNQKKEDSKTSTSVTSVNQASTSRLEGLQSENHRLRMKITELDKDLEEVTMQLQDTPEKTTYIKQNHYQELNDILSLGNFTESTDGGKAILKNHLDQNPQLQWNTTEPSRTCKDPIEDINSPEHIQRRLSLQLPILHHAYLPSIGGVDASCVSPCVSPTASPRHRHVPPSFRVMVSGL
Sequence (Q9Z0U4 17-960 limits assumed): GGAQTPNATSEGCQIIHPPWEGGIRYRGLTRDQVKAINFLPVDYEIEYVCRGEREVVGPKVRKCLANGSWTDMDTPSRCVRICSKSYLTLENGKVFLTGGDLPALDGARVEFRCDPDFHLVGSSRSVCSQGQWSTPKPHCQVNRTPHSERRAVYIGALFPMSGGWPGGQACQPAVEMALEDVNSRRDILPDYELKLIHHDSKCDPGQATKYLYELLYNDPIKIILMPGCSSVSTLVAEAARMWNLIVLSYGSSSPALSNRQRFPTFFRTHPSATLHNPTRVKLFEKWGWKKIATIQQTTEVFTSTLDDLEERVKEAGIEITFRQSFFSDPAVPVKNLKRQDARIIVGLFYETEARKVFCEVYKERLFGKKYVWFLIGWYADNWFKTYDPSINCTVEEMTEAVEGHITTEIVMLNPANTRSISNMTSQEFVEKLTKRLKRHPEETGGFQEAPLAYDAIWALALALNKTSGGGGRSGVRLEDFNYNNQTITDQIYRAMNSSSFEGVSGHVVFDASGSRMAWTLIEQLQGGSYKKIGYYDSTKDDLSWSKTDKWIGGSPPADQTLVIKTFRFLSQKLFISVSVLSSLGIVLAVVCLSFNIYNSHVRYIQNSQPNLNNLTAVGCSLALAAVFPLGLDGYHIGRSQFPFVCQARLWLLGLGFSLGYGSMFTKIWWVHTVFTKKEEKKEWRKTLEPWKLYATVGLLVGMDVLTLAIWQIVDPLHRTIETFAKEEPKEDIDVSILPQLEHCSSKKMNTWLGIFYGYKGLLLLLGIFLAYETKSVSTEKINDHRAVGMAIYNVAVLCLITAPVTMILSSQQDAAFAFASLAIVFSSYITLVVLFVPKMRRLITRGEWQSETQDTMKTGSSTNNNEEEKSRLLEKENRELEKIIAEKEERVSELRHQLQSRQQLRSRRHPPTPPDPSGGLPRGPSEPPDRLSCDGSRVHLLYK
pEC50: −log10 of the molar value. Structures can show the parent of a compound that is named as a salt.

// solved cases for pEC50 follow
compound	target-under-test	experimental-result
Cc1cc([C@H]2CCCN(C=O)[C@@H]2C)n2nc([C@H]3CC[C@H](C(F)(F)F)CC3)cc2n1 [Example 89]	GABAB receptor (Rattus norvegicus, UniProt O88871+Q9Z0U4)	6.00 to 7.00
CC(=O)N1CCO[C@@H](c2c(C)c(C)nc3cc([C@H]4CC[C@H](C(F)(F)F)CC4)nn23)C1 [Example 88]	GABAB receptor (Rattus norvegicus, UniProt O88871+Q9Z0U4)	6.00 to 7.00

Moving on to the next compound.
(Q) Give the reported pEC50 for Cc1nc2cc([C@H]3CC[C@H](C(F)(F)F)CC3)nn2c([C@]2(C)CCCN(CC#N)C2)c1C [Example 18, hydrochloride] (system: GABAB receptor (Rattus norvegicus, UniProt O88871+Q9Z0U4)).
(A) 6.00 to 7.00
